- SYSTEM_NAME: K-Ras G13C (Homo sapiens (Human), UniProt P01116+P62937, G13C)
- Sequence (P01116-2 other isoform, or with tags, fused parts or gaps G13C): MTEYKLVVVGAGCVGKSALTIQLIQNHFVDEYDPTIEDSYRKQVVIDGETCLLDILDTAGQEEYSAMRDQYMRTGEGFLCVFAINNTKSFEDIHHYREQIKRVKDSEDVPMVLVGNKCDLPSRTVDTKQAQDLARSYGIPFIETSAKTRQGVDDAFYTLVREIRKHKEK
- Sequence (P62937 whole entry): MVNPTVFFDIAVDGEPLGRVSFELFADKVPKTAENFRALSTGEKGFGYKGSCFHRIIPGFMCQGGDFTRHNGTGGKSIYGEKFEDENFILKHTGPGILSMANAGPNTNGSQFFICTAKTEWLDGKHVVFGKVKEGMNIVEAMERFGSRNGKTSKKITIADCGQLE
- METHOD: Ras-Raf (BRAF RBD) disruption / FRET / MOA assay, KRAS G13C
- Format: biochemical
- MEASUREMENT_CONTEXT: KRAS G13C; Ras-Raf disruption/FRET/MOA assay; read-out: IC50* KRAS G13C FRET data
Would you mind telling me the reported IC50 of each entry?

Task: Read off the recorded IC50 for CC#CC(=O)N1CC[C@]2(CCN([C@H](C(=O)N[C@H]3Cc4nc(cs4)-c4ccc5c(c4)c(c(-c4cccnc4[C@H](C)OC)n5CC)CC(C)(C)COC(=O)[C@@H]4CCCN(N4)C3=O)C(C)C)C2=O)C1 (atropisomer, axis not shown)
Result: 1 to 10 µM

Task: Read off the recorded IC50 for CCn1c(-c2cccnc2[C@H](C)OC)c2c3cc(ccc31)-c1csc(n1)C[C@H](NC(=O)[C@H](C(C)C)N(C)C(=O)N(C)C1CN(C(=O)/C=C/[C@H]3CCCN3C)C1)C(=O)N1CCC[C@H](N1)C(=O)OCC(C)(C)C2 (atropisomer, axis not shown)
Result: 0.1 to 1 µM

Task: Read off the recorded IC50 for C=CC(=O)N1CCOC2(CCN(C(=O)N(C)[C@H](C(=O)N[C@H]3Cc4nsc(n4)-c4ccc5c(c4)c(c(-c4cccnc4[C@H](C)OC)n5CC)CC(C)(C)COC(=O)[C@@H]4CCCN(N4)C3=O)C(C)C)CC2)C1 (atropisomer, axis not shown)
Result: 0.01 to 0.1 µM

Task: Read off the recorded IC50 for C=CC(=O)Nc1cnc(C(=O)N(C)[C@H](C(=O)N[C@H]2Cc3cc(O)cc(c3)-c3ccc4c(c3)c(c(-c3cccnc3[C@H](C)OC)n4CC)CC(C)(C)COC(=O)[C@@H]3CCCN(N3)C2=O)C(C)C)s1 (atropisomer, axis not shown)
Result: 0.01 to 0.1 µM

Task: Read off the recorded IC50 for C=CC(=O)N1CC[C@H](C(=O)N(C)[C@H](C(=O)N[C@H]2Cc3nc(cs3)-c3ccc4c(c3)c(c(-c3cccnc3[C@H](C)OC)n4CC)CC(C)(C)C/C=C/[C@@H]3CCCN(N3)C2=O)C(C)C)C1 (atropisomer, axis not shown)
Result: > 10 µM

Task: Read off the recorded IC50 for C=CC(=O)N1CC[C@@]2(COCCN2C(=O)N(C)[C@H](C(=O)N[C@H]2Cc3nc(cs3)-c3ccc4c(c3)c(c(-c3cccnc3[C@H](C)OC)n4CC)CC(C)(C)COC(=O)[C@@H]3CCCN(N3)C2=O)C(C)C)C1 (atropisomer, axis not shown)
Result: 1 to 10 µM

Task: Read off the recorded IC50 for CCn1c(-c2cccnc2[C@H](C)OC)c2c3cc(ccc31)-c1csc(n1)C[C@H](NC(=O)[C@@H](F)COC1CN(C(=O)C#CC(C)(C)N(C)C)C1)C(=O)N1CCC[C@H](N1)C(=O)OCC(C)(C)C2 (atropisomer, axis not shown)
Result: 1 to 10 µM

Task: Read off the recorded IC50 for C=CC(=O)N1CC[C@H](C(=O)N(C)[C@H](C(=O)N[C@H]2Cc3coc(n3)-c3ccc4c(c3)c(c(-c3cccnc3[C@H](C)OC)n4CC)CC(C)(C)COC(=O)[C@@H]3CCCN(N3)C2=O)C(C)C)C1 (atropisomer, axis not shown)
Result: 1 to 10 µM

---

- SYSTEM_NAME: NRAS WT (Homo sapiens (Human), UniProt P01111+P62937)
- Sequence (P01111 whole entry): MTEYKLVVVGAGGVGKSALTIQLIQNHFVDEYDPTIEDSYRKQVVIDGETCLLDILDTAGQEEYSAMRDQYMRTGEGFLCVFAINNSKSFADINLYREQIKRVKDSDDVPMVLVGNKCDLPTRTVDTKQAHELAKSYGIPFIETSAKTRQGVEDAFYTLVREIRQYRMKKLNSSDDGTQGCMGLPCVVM
- Sequence (P62937 whole entry): as the sequence (P62937 whole entry) above
- METHOD: Ras-Raf (BRAF RBD) disruption / FRET / MOA assay, NRAS WT
- Type: biochemical
- MEASUREMENT_CONTEXT: read-out: IC50* NRAS WT FRET data
READOUT_NAME: IC50

Task: Read off the recorded IC50 for CCn1c(-c2cccnc2[C@H](C)OC)c2c3cc(ccc31)-c1csc(n1)C[C@H](NC(=O)[C@H](C(C)C)N(C)C(=O)N1CC(N(C)C(=O)/C=C/CN(C)C)C1)C(=O)N1CCC[C@H](N1)C(=O)OCC(C)(C)C2 (atropisomer, axis not shown)
Result: 100 to 1000 nM

Task: Read off the recorded IC50 for C=CC(=O)N1CCO[C@H]2CN(C(=O)N(C)[C@H](C(=O)N[C@H]3Cc4cccc(n4)-c4ccc5c(c4)c(c(-c4cccnc4[C@H](C)OC)n5CC)CC(C)(C)COC(=O)[C@@H]4CCCN(N4)C3=O)C(C)C)C[C@H]21 (atropisomer, axis not shown)
Result: 1000 to 10000 nM

Task: Read off the recorded IC50 for C=CC(=O)Nc1ncc(C(=O)N(C)[C@H](C(=O)N[C@H]2Cc3cccc(c3)-c3ccc4c(c3)c(c(-c3cccnc3[C@H](C)OC)n4CC)CC(C)(C)COC(=O)[C@@H]3CCCN(N3)C2=O)C(C)C)n1C (atropisomer, axis not shown)
Result: 1000 to 10000 nM

Task: Read off the recorded IC50 for C=CC(=O)N1CC[C@H](C(=O)N(C)[C@H](C(=O)N[C@H]2Cc3cccc(c3)-c3ccc4c(c3)c(c(-c3cccnc3[C@H](C)OC)n4CC(F)F)CC(C)(C)COC(=O)[C@@H]3CCCN(N3)C2=O)C(C)C)C1 (atropisomer, axis not shown)
Result: 1000 to 10000 nM

Task: Read off the recorded IC50 for C=CC(=O)N1CC[C@H](C(=O)N(C)[C@H](C(=O)N[C@H]2Cc3cc(CF)cc(c3)-c3ccc4c(c3)c(c(-c3cccnc3[C@H](C)OC)n4CC)CC(C)(C)COC(=O)[C@@H]3CCCN(N3)C2=O)C(C)C)C1 (atropisomer, axis not shown)
Result: 1000 to 10000 nM

Task: Read off the recorded IC50 for C=CS(=O)(=O)N1CC[C@H](C(=O)N(C)[C@H](C(=O)N[C@H]2Cc3cc(O)cc(c3)-c3ccc4c(c3)c(c(-c3cncnc3)n4CC)CC(C)(C)COC(=O)[C@@H]3CCCN(N3)C2=O)C(C)C)C1
Result: 1000 to 10000 nM

Task: Read off the recorded IC50 for CCn1c(-c2cccnc2[C@H](C)OC)c2c3cc(ccc31)-c1cnc(o1)C[C@H](NC(=O)[C@@H](COC1CN(C(=O)C#CC(C)(C)N(C)C)C1)C(C)C)C(=O)N1CCC[C@H](N1)C(=O)OCC(C)(C)C2 (atropisomer, axis not shown)
Result: > 10000 nM

Task: Read off the recorded IC50 for CO[C@@H](C)c1ncccc1-c1c2c3cc(ccc3n1CC(F)(F)F)-c1nc(ns1)C[C@H](NC(=O)[C@@H](COC1CN(C(=O)C#CC(C)(C)N(C)C)C1)C(C)C)C(=O)N1CCC[C@H](N1)C(=O)OCC(C)(C)C2 (atropisomer, axis not shown)
Result: 1000 to 10000 nM

Task: Read off the recorded IC50 for CCn1c(-c2cccnc2[C@H](C)OC)c2c3cc(ccc31)-c1cnc(o1)C[C@H](NC(=O)[C@H](C(C)C)N(C)C(=O)[C@H]1CCN(C(=O)C#CC(C)(C)N(C)C)C1)C(=O)N1CCC[C@H](N1)C(=O)OCC(C)(C)C2 (atropisomer, axis not shown)
Result: > 10000 nM

Task: Read off the recorded IC50 for C=CC(=O)N1CC[C@H](C(=O)N2CC[C@H](C)[C@H]2C(=O)N[C@H]2Cc3cccc(c3)-c3ccc4c(c3)c(c(-c3cccnc3[C@H](C)OC)n4CC)CC(C)(C)COC(=O)[C@@H]3CCCN(N3)C2=O)C1 (atropisomer, axis not shown)
Result: 1000 to 10000 nM

Task: Read off the recorded IC50 for C=CC(=O)N1CC[C@]2(CCN2C(=O)N(C)[C@H](C(=O)N[C@H]2Cc3nc(cs3)-c3ccc4c(c3)c(c(-c3cccnc3[C@H](C)OC)n4CC)CC(C)(C)COC(=O)[C@@H]3CCCN(N3)C2=O)C(C)C)C1 (atropisomer, axis not shown)
Result: 100 to 1000 nM

Task: Read off the recorded IC50 for C=CS(=O)(=O)N1CCC(C(=O)N(C)[C@H](C(=O)N[C@H]2Cc3nc(cs3)-c3ccc4c(c3)c(c(-c3cncnc3)n4CC)CC(C)(C)COC(=O)[C@@H]3CCCN(N3)C2=O)C(C)C)C1 (single isomer, unassigned)
Result: > 10000 nM

Task: Read off the recorded IC50 for CCn1c(-c2cccnc2[C@H](C)OC)c2c3cc(ccc31)-c1csc(n1)C[C@H](NC(=O)[C@H](C(C)C)N(C)C(=O)N(C)C1CN(C(=O)/C=C/[C@@H]3CCCN3C)C1)C(=O)N1CCC[C@H](N1)C(=O)OCC(C)(C)C2 (atropisomer, axis not shown)
Result: 100 to 1000 nM

Task: Read off the recorded IC50 for C=CC(=O)N1CC[C@H](C(=O)N(C)[C@H](C(=O)N[C@H]2Cc3cccc(c3)-c3ccc4c(c3)c(c(-c3cc5c(nc3[C@H](C)OC)CCN(C)C5)n4CC)CC(C)(C)COC(=O)[C@@H]3CCCN(N3)C2=O)C(C)C)C1 (atropisomer, axis not shown)
Result: 1000 to 10000 nM

Task: Read off the recorded IC50 for C=CC(=O)N1CCO[C@@H]2CN(C(=O)N(C)[C@H](C(=O)N[C@H]3Cc4nc(cs4)-c4ccc5c(c4)c(c(-c4cccnc4[C@H](C)OC)n5CC)CC(C)(C)COC(=O)[C@@H]4CCCN(N4)C3=O)C(C)C)C[C@@H]21 (atropisomer, axis not shown)
Result: 100 to 1000 nM

Source of measurements: patent US11566007B2
